# protocol: yeast display, Sf9 membrane polyspecificity reagent, FACS + sequencing; frameworks hold sequencing errors
assay_metric: polyreactivity (PSR sort gate)

In: Item QVQLVESGGGLVQAGGSLRLSCAASGITFIGYAMGWYRQAPGKERELVASITSGANTNYADSVKGRFTISRDNAKNTVYLQMNSLKPEDTAVYYCAAPEHGTYANILGEPLDYWGQGTQVTVSS has what recorded polyreactivity (PSR sort gate)?
Out: low polyreactivity

In: Then what about the sequence QVQLVESGGGLVQAGGSLRLSCAASGFIFVDYAMGWYRQAPGKERELVAAISSSGSTTYADSVKGRFTISRDNAKNIVYLKMNSLKPEDTAVYYCAAGLPRVLKDATFDYWGQGTQVTVSS ?
Out: low polyreactivity

In: Then what about the sequence QVQLVESGGGLVQAGGSLRLSCAASGSIFPGYARGWYRQAPGKERELVATITWSGGSTYYADSVKGRFTISRDNAKNTVYLQMNILIPEDTAVYYCNADSNWYYQWNYYGLYDYWGQGNQVTVSS ?
Out: low polyreactivity

In: Then what about the sequence QVQLVESGGGLVQAGGSLRLSCAASGRTFGPYTMGWYRQAPGKEREFVAAINSSGSRTYYADSVKGRFTISRDNAKNTVYLQMNSLKPEDTAVYYCAAEAKWYYSWSYPYEGDYWGQGSQVTVSS ?
Out: low polyreactivity

In: Then what about the sequence QVQLVESGGGLVQAGGSLRLSCAASGRIFRRYAMGWYRQAPGKEREFVAAISYGGGSTYYADSVKGRFTISRDNAKNTVYLQMNSLKPEDTAVYYCNADEVVWGYNYWGQGTQVTVSS ?
Out: low polyreactivity

In: Then what about the sequence QVQLVESGGGLVEAGGSLRLSCAASGSTINYNAMGWYRQAPGKERELVAAIDSGVSTNYADSVNGRFTISRDNAKNTVYLQMNSLKPEDTAVYYCAVGGAGSDDYWGQRTQVTVSS ?
Out: low polyreactivity

In: Then what about the sequence QVQLVESGGGLVQAGGSLRLSCAASGRIYWNDMGWYIQAPGKERELVAAISWGGDRTYYADSVKGRFTISRDNAKNTVYLQMNSLKPEDTSVYYCNAPGYLTYDHSYDYWGQGTQVTVSS ?
Out: low polyreactivity

In: Then what about the sequence QVQLVETGGGLVQAGGSLGLSFAASGFIFSYYLMGWYRQAPGKERELVAAITTSGDSTYYADSVKGRFTISSDNAKNTVYLQINRLKPEDSAVYYCAADNYYETIWHYGYWGQGTQVTVSS ?
Out: high polyreactivity

***
In: Item QVQLVESGRGLVQAGGSLRLSCAPSGFTFYRNEMGWYRQAPGKERELVAAITFSGGITYYADSVKGRFTISRDNAKNTVYLQMNSLKPEDTAVYYGAAEGVGPARVYQGGEYNYWGQGTQVTVSS has what recorded polyreactivity (PSR sort gate)?
Out: low polyreactivity

In: Then what about the sequence QVQLVESGGGLVQAGGSLRLSCAASGSIFFYYAMGWYRQAPGKERELVATITSGGSTSYADSVKGRFTISRDNAKNTVFLQMNSLKPEDTAVYYCAARKVTKSTYNYWGQGTQVTVSS ?
Out: low polyreactivity

In: Then what about the sequence QVQLVESGGGLVQAGGSLRLSCAASGLTFAVYAMGWYRQAPGKERELVASITRSGGSTYYADSVKGRFTISRDNAKNTVYLQMNSLKPEDTAVYYCAAQTIYSGRYYYYSRYDYWGQGTQVTVSS ?
Out: high polyreactivity

====

# protocol: yeast display, Sf9 membrane polyspecificity reagent, FACS + sequencing; frameworks hold sequencing errors
assay_metric: polyreactivity (PSR sort gate)

In: Item QVQLVESGGGLVQAGGSLRLSCAATGRIFYPYAMGWYRQAPGKERELVATIRWRGGSTRYADSVKGRFTISRDNAKNTVFLQMNSLKPEDTAVYYCAAGFKVEPTDLYYWGQGTQVTVSS has what recorded polyreactivity (PSR sort gate)?
Out: high polyreactivity

In: Then what about the sequence QVQLVESGAGLVQARGSLRLSCAASGYTFLGYAMGWYRQAPGKERELVAAINRSGSSTYYADSVKGRFTISRDNAKNTVYLQMNSLKPEDTAVYYCNARSGNRYGPRYDYWGQGTQVTVSS ?
Out: high polyreactivity

In: Then what about the sequence QVQLVESGGGLVQAGGSLRLSCAASGRTFKYYAMGWYRQAPGKERELVAAITASDGSTYYADSVKGRFTISRDNAKNTVYLQMNSLKPEDTAVYYCAAVPYRYTYDYWGQGTQVTVSS ?
Out: high polyreactivity

====

# protocol: yeast display, Sf9 membrane polyspecificity reagent, FACS + sequencing; frameworks hold sequencing errors
assay_metric: polyreactivity (PSR sort gate)

Some sequences with recorded polyreactivity (PSR sort gate):
In: Item QVQIVESVGGLVQAGGSLRLSCAASGSTFWFTDMGWYRQAPGKERELVAVITWTGGSTSYADSVKGRFTISRDNAKNTDYLQMKCLNAEDTADYYCDTPVKFGGVPYRYGYWGQGTEVTVSS has what recorded polyreactivity (PSR sort gate)?
Out: low polyreactivity

In: Then what about the sequence QVQLVESGGGLVQAGGSLRLSCAASGSIFHTYAMGWYRKAPEKERELVAANTVSGGDTYYADSVKGRFTISRDNEKNTVYLQMNSLKAEDTAVYYCAVDTTTSYTVEYDYWGQGTQVTVSS ?
Out: low polyreactivity

In: Then what about the sequence QVQLVESGGGLVQAGGSLRLSCAASGRTFPYNAMGWYRQAPGNERELVAGISSGGTTTYADSVKGRFTISRDNAKNTVYLQMNSLKPEVTAVYYCAATVIIFDHSRPGWDDYDYWGQGTQVTVSS ?
Out: low polyreactivity

In: Then what about the sequence QVQLVESGGGLVQAGGSLRLSCAASGRIFGRYAMGWYRQAPGKEREFVATITSRGGNTYYADSVKGRFTISRDTAKNSVYLQMNSLKPEDTAVYYCNADYLWFNFYYWGQGTQVTVSS ?
Out: low polyreactivity

Shift focus to the following entry.
In: Item QVQLVESGGGLVQAGGSLRLSCAASGSTFYSYAMGWYRQAPGKEREFVAAIRYSGGRTYADSVKGRFSISRDNAKNTVYLQMNSLKPEDTAVYYCAAVYYSYRWPYDYWGQGTQVTVSS has what recorded polyreactivity (PSR sort gate)?
Out: high polyreactivity

====

# protocol: yeast display, Sf9 membrane polyspecificity reagent, FACS + sequencing; frameworks hold sequencing errors
assay_metric: polyreactivity (PSR sort gate)

In: Item QVQLVESGGGLVQAGGSLRLSCADSGRTSYYYVMGWYRQAPGKERELVAAIRSRGGSTYYADSVKGRFTISRDNAKNTVYLQMNSLKPEDTAVYYCAARYGFWSYDFGYWGLGTQVTVSS has what recorded polyreactivity (PSR sort gate)?
Out: high polyreactivity

In: Then what about the sequence QVQLVESGGGLVQAGCSLRLSCAASGNSFPSYAMGWYRQAPGKARELVAAITTGGRTYYADSVKGRFTISRDNAKNTVYLQMNSLNPEDTAVYYCAADWGVRYPWYRYYYWGQATQVTVSS ?
Out: high polyreactivity

====

# protocol: yeast display, Sf9 membrane polyspecificity reagent, FACS + sequencing; frameworks hold sequencing errors
assay_metric: polyreactivity (PSR sort gate)

Some sequences with recorded polyreactivity (PSR sort gate):
In: Item QVQLVESGGGLVQAGGSLRLSCAASGSIFDTYAMGWYRQAPGKERELVAAITWSGSSTYYADSVKGRFTISRDNAKNTVSLQMNRLKPEDTAVYYCAKRQYLYTSKYDYWGQGTQVTVSS has what recorded polyreactivity (PSR sort gate)?
Out: high polyreactivity

In: Then what about the sequence QVQLVESGGGLVQAGGSLRLSCAASGSIFKGNAMGWYRQAPRKERELVATITSSGDSTNYADSVKGRFTISRDNAKNTVYLQMNSLKPEDTAVYYCATEPFRYSLAGGYWGQGTQVTVSS ?
Out: low polyreactivity

In: Then what about the sequence QVQLVESGGGLVQAGGSLRLSCAASGRTFDGNTMGWYRQAPGKERELVAAITKRGGSTYYADSVKGRFTFSRDNAKNTVYLQMNSLKPEDTAVYYCAKGQSYSTRLSPYYYWGQGTQVTVSS ?
Out: high polyreactivity

In: Then what about the sequence QVQLVESGGGLVQAGGSLRLSCAASGSTFVYNAMGWYRQAPGKERELVAAISRGGGITYYADSVKGRFTISRDNAKNTVYLQMNSLKPEDTAVYYCQYLSRGLNTYRSSQGDDDYWGQGTQVTVSS ?
Out: high polyreactivity

***
In: Item QVQLVESGGGLVQAGGSLRLSCAASGFTFYVYAMGWYRQAPGKERELVASISRGGSTYYADSVKGRFTISRDNAKNTVYLQINSLKPEDTAVYYCNRVPYVSSSKVRYSNGFDYWGQGTQVTVSS has what recorded polyreactivity (PSR sort gate)?
Out: low polyreactivity
